target-system: KDR(h) (Homo sapiens, UniProt P35968)
Construct: purchased Upstate Biotechnology (Dundee, UK), KinaseProfiler service
Sequence (P35968 20-1356): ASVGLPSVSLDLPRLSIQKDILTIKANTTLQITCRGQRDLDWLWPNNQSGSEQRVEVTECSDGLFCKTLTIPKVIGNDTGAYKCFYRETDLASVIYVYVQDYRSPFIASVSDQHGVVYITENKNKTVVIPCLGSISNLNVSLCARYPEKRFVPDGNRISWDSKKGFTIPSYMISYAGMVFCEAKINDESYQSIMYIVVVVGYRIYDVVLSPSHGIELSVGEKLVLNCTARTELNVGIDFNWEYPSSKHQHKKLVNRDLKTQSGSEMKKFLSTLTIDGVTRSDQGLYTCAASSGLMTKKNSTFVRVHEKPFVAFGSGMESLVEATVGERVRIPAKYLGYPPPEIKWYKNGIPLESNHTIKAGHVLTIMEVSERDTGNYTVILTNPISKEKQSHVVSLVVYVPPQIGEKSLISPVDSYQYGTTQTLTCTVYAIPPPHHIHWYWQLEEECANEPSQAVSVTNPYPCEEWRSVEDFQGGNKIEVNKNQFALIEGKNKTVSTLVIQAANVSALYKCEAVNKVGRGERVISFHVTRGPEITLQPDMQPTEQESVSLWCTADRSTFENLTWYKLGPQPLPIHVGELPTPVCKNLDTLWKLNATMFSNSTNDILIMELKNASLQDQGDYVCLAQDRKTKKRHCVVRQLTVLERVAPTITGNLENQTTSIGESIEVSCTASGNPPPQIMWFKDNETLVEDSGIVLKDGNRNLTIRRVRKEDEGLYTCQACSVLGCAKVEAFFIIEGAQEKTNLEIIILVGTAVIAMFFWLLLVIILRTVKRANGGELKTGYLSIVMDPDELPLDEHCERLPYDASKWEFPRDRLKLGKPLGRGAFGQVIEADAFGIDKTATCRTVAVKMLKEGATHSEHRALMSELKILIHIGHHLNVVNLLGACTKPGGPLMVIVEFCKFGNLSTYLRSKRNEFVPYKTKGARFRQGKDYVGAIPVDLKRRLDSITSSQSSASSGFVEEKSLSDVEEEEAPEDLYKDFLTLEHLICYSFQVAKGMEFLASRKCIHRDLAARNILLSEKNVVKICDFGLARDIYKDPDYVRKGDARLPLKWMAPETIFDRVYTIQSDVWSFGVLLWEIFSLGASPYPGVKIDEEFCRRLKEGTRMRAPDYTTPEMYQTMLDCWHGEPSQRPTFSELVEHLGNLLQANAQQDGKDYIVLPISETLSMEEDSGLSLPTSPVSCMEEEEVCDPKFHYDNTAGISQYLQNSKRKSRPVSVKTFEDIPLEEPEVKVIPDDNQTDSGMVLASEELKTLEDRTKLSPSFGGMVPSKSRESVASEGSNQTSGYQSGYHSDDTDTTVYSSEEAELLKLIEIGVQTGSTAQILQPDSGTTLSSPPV
protocol-description: Upstate KinaseProfiler enzyme assay, KDR
Format: biochemical
test-settings: 500 nM compound; read-out: Percent inhibition at 500 nM KDR(h)
recorded-endpoint: inhibition at 0.5 µM
In your response, the unit should come after the numeric value.

Ask | Query: inhibition at 0.5 µM; subject: C=CC(=O)Nc1ccc(Sc2nc(Nc3ccc(CNS(C)(=O)=O)cc3)ncc2C)cc1 [Compound 294]
Reply | 93%

Ask | // query: C=CC(=O)Nc1ccc(Sc2nc(Nc3ccc(N4CCOCC4)cc3)ncc2C)cc1 [Compound 124]
Reply | 100%

Ask | // query: C=CC(=O)Nc1cc(C)c(Sc2nc(Nc3ccc(N4CCOCC4)cc3)ncc2C)c(C)c1 [Compound 164]
Reply | 83%

Ask | // query: C=CC(=O)Nc1ccc(Sc2nc(Nc3cccc(N4CCOCC4)c3)ncc2F)cc1 [Compound 267]
Reply | 94%

Ask | // query: C=CC(=O)Nc1ccc(Sc2nc(Nc3cccc(NS(C)(=O)=O)c3)ncc2C)cc1 [Compound 288]
Reply | 94%

Ask | // query: C=CC(=O)Nc1ccc(Sc2ccnc(Nc3cccc(N4CCOCC4)c3)n2)cc1 [Compound 77]
Reply | 100%

Ask | // query: C=CC(=O)Nc1ccc(Sc2ccnc(Nc3ccc(Cl)cc3)n2)cc1 [Compound 353]
Reply | 100%

Ask | // query: C=CC(=O)Nc1ccc(Sc2ccnc(Nc3ccc(C#N)cc3)n2)cc1 [Compound 131]
Reply | 100%

Ask | // query: C=CC(=O)Nc1ccc(Sc2ccnc(Nc3cccc(C#N)c3)n2)cc1 [Compound 118]
Reply | 100%

Ask | // query: C=CC(=O)Nc1ccc(Sc2nc(Nc3ccc(N4CCC(CO)CC4)cc3)ncc2C)cc1 [Compound 286]
Reply | 94%

Ask | // query: C=CC(=O)NCc1cccc(Sc2ccnc(Nc3ccc(N4CCOCC4)cc3)n2)c1 [Compound 112]
Reply | 100%

Ask | // query: C=CC(=O)Nc1ccc(Sc2nc(Nc3cccc(N4CCOCC4)c3)ncc2C)cc1 [Compound 237]
Reply | 97%

Ask | // query: CC#CC(=O)Nc1ccc(Sc2ccnc(Nc3cccc(N4CCOCC4)c3)n2)cc1 [Compound 233]
Reply | 98%
